Where do these numbers come from? They come from patent US20240051970A1.

Below is a list of entries, each paired with its recorded pEC50 value.
biological target: hSTING (Homo sapiens, UniProt Q86WV6, G230A/H232R/R293Q/R71H); construct: host or cells: THP1-Dual KO-IFNAR2 cells; experiment: STING reporter assay (luciferase) in THP1-Dual KO-IFNAR2 cells activated with 2'3'cGAMP; type: cell-based; settings: 15 μM 2'3'cGAMP, 24 h
Sequence (Q86WV6 whole entry R71H/G230A/H232R/R293Q): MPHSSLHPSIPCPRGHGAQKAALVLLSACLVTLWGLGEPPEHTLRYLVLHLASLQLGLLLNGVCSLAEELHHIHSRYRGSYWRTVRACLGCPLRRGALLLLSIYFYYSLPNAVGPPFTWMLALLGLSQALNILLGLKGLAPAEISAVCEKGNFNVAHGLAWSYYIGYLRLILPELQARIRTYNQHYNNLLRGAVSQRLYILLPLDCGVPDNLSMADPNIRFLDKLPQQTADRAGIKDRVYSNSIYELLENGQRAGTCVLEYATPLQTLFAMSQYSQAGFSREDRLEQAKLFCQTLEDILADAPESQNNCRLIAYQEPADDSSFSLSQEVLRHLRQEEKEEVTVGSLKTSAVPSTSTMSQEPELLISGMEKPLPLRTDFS
pEC50: −log10 of the molar value.

>  <compound>
CN(C)CCn1cc(-c2ccc3[nH]c(Nc4cc(Cl)c5cc[nH]c5c4)nc3c2)cn1 [Compound 147]

>  <pEC50>
4.00 to 5.30

$$$$
>  <compound>
Clc1ccc2c(c1)nc(Nc1cc(Cl)c3cc[nH]c3c1)n2CCc1ccccc1 [Compound 107]

>  <pEC50>
5.30 to 6.00

$$$$
>  <compound>
CC(C)(C)OC(=O)N1CCC(c2ccc3[nH]c(Nc4cc(Cl)c5cc[nH]c5c4)nc3c2)CC1 [Compound 162]

>  <pEC50>
6.00 to 6.70

$$$$

Pending compound:
Measured pEC50 for this entry Clc1cc(Nc2nc3cc(C4CCCCC4)ccc3[nH]2)cc2[nH]ccc12 [Compound 168] on hSTING (Homo sapiens, UniProt Q86WV6, G230A/H232R/R293Q/R71H): 6.00 to 6.70

###

Below is a list of entries, each paired with its recorded EC50 value.
biological target: hSTING (Homo sapiens, UniProt Q86WV6, G230A/H232R/R293Q/R71H); assay: STING reporter assay (luciferase) in THP1-Dual KO-IFNAR2 cells activated with 2'3'cGAMP; details: 15 μM 2'3'cGAMP, 24 h

Here's what some known entries look like.
>  <compound>
FC(F)(F)Oc1ccc(-c2ccc3[nH]c(Nc4cc(Cl)c5cc[nH]c5c4)nc3c2)cc1 [Compound 170]

>  <EC50>
200 to 1000 nM

$$$$
>  <compound>
Clc1cc2nc(Nc3cc(Cl)c4cc[nH]c4c3)[nH]c2cc1Cl [Compound 110]

>  <EC50>
40 to 200 nM

$$$$
>  <compound>
COCCn1c(Nc2cc(Cl)c3cc[nH]c3c2)nc2cc(Cl)c(Cl)cc21 [Compound 104]

>  <EC50>
1000 to 5000 nM

$$$$
>  <compound>
CCn1c(Nc2ccc3cc[nH]c3c2)nc2cc(C(F)(F)F)ccc21 [Compound 122]

>  <EC50>
1000 to 5000 nM

$$$$

// CC(C)n1cc(-c2ccc3[nH]c(Nc4cc(Cl)c5cc[nH]c5c4)nc3c2)cn1 [Compound 155] : EC50 value = 200 to 1000 nM

// Cn1c(Nc2ccc3cc[nH]c3c2)nc2ccc(C(F)(F)F)cc21 [Compound 114] : EC50 value = 1000 to 5000 nM

// N#Cc1cncc(-c2ccc3[nH]c(Nc4cc(Cl)c5cc[nH]c5c4)nc3c2)c1 [Compound 167] : EC50 value = 200 to 1000 nM

// CCOC(=O)C1CCC(c2ccc3[nH]c(Nc4cc(Cl)c5cc[nH]c5c4)nc3c2)CC1 (centres unmarked) [Compound 138] : EC50 value = 1000 to 5000 nM

// Clc1ccc2c(c1)nc(Nc1cc(Cl)c3cc[nH]c3c1)n2Cc1ccccc1 [Compound 106] : EC50 value = 1000 to 5000 nM

// Fc1ccc2nc(Nc3cc(Cl)c4cc[nH]c4c3)[nH]c2c1 [Compound 115] : EC50 value = 200 to 1000 nM

// FC(F)(F)c1ccc2[nH]c(Nc3ccc4cc[nH]c4c3)nc2c1 [Compound 123] : EC50 value = 200 to 1000 nM
